- Tested on: pERK in A549 cells
- protocol_text: Inhibition of KRas phosphorylation of ERK (Cisbio HTRF pERK assay)
- test_conditions: Homo sapiens, A549, read-out: Inhibition (HTRF IC50) of KRas-mediated Phosphorylation of ERK, A549
assay_endpoint: log10(IC50) (log10 of the value in nM)
Hey, these are logged values: log10 of IC50, nM being the unit before logging.

1. CCc1c(F)ccc2cc(O)cc(-c3ncc4c(N5CCCn6nc(C(=O)N(C)CC)cc6C5)nc(OC[C@@]56CCCN5C[C@H](F)C6)nc4c3F)c12: 1.64
2. C#Cc1c(F)ccc2cc(O)cc(-c3ncc4c(N5CCCn6nc(C(=O)N(C)C)cc6C5)nc(OC[C@@]56CCCN5C[C@H](F)C6)nc4c3F)c12: 2.01
3. CCc1c(F)ccc2cc(O)cc(-c3ncc4c(N5CCCC6(COC(=O)N6)C5)nc(OC[C@@]56CCCN5C[C@H](F)C6)nc4c3F)c12 (some centres unmarked): 3.10
4. CCc1c(F)ccc2cc(O)cc(-c3ncc4c(N5CCCC6(CNS(=O)(=O)N6)C5)nc(OCC5(CN(C)C)CC5)nc4c3F)c12 (centres unmarked): 2.34
5. Oc1cc(-c2ncc3c(N4CCCC5(CC(O)C5)C4)nc(OC[C@@]45CCCN4C[C@H](F)C5)nc3c2F)c2c(Br)c(F)ccc2c1 (some centres unmarked): 1.43

Find log10(IC50) (pERK in A549 cells) for the entry CCc1c(F)ccc2cc(O)cc(-c3ncc4c(N5CCCOCC5)nc(OC[C@@]56CCCN5C[C@H](F)C6)nc4c3F)c12
1.45

Find log10(IC50) (pERK in A549 cells) for the entry CCc1c(F)ccc2cc(O)cc(-c3ncc4c(N5CCC[C@@](C)(O)C5)nc(OCC5(CN6CCCCC6)CC5)nc4c3F)c12
0.78

Find log10(IC50) (pERK in A549 cells) for the entry O=C1CC2(CCCN(c3nc(OC[C@@]45CCCN4C[C@H](F)C5)nc4c(F)c(-c5cc(O)cc6ccc(F)c(F)c56)ncc34)C2)N1 (some centres unmarked)
2.35

Find log10(IC50) (pERK in A549 cells) for the entry CN(C)C(=O)c1cc2n(n1)CCCN(c1nc(OC[C@@]34CCCN3C[C@H](F)C4)nc3c(F)c(-c4cc(O)cc5ccc(F)c(Cl)c45)ncc13)C2
2.58

Find log10(IC50) (pERK in A549 cells) for the entry CCc1c(F)ccc2cc(O)cc(-c3ncc4c(N5CCCn6nc(C(=O)N7CCCC7)cc6C5)nc(OC[C@@]56CCCN5C[C@H](F)C6)nc4c3F)c12
2.15
